- System: colon cancer cell line HT-29
- Experimental Protocol: cells
- Type: cell-based
- Assay Conditions: 72 hours, CCK-8; read-out: IC50 ± SD, HT-29
IC50 by entry:
Respond numerically; units are µM and should not be typed.

Molecule: COC(=O)C12CCC(C)(CC3C(=O)C45C(O)C3CCC4C34COC5(O)C(O)C3C(C)(C)CCC4O)C(C)=C1C1=CCC3C4(C)CC(O)C(O)C(C)(C)C4CCC3(C)C1(C)CC2 (centres unmarked) [Compound 2, Bisicacinol C]
Assay Target: colon cancer cell line HT-29
IC50, µM: 33.4

Now for another entry.
QUERY: Request the reported IC50 associated with COC(=O)C12CCC(C)(CC3C(=O)C45C(O)C3CCC4C34COC5(O)C(O)C3C(C)(C)CCC4O)C(C)=C1C1=CCC3C4(C)CC(O)C(O)C(C)(C)C4CCC3(C)C1(C)CC2 (centres unmarked) [Compound 1, Bisicacinol B]
RESULT: 15

###

- Test system: liver cancer cell line HepG2
- Experimental Protocol: cells
- Assay type: cell-based
- Assay Conditions: 72 hours, CCK-8; read-out: IC50 ± SD, HepG2
Measured Metric: pIC50
pIC50 is defined as minus the log10 of a concentration measured in mol/L.

QUERY: Please provide the recorded pIC50 for COC(=O)C12CCC(C)(CC3C(=O)C45C(O)C3CCC4C34COC5(O)C(O)C3C(C)(C)CCC4O)C(C)=C1C1=CCC3C4(C)CC(O)C(O)C(C)(C)C4CCC3(C)C1(C)CC2 (centres unmarked) [Compound 1, Bisicacinol B] , tested on liver cancer cell line HepG2.
RESULT: 4.83

###

- Test system: lung cancer cell line A549
- Type: cell-based
- Assay Conditions: 72 hours, CCK-8; read-out: IC50 ± SD, A549
Measured Metric: IC50 (µM)
Express your answer in µM, writing the number without its unit.

Molecule: COC(=O)C12CCC(C)(CC3C(=O)C45C(O)C3CCC4C34COC5(O)C(O)C3C(C)(C)CCC4O)C(C)=C1C1=CCC3C4(C)CC(O)C(O)C(C)(C)C4CCC3(C)C1(C)CC2 (stereo not drawn) [Compound 1, Bisicacinol B]
IC50 / µM: 4.2

Proceed to the following item.
QUERY: Quick one: IC50 of COC(=O)C12CCC(C)(CC3C(=O)C45C(O)C3CCC4C34COC5(O)C(O)C3C(C)(C)CCC4O)C(C)=C1C1=CCC3C4(C)CC(O)C(O)C(C)(C)C4CCC3(C)C1(C)CC2 (stereo not drawn) [Compound 2, Bisicacinol C] ?
RESULT: 23.1
